Biological target: SARS-CoV-2 P.1 spike protein (SARS-CoV-2 P.1 (Gamma), UniProt P0DTC2 13-1213)
Assay: ELISA
Would you kindly list pIC50 for each of these binders?
Quick note: pIC50 values are minus log10 of concentrations in mol/L.

Q: # pIC50 lookup, item 4-M3-A (antibody, V domains shown) VH: EVQLQQSGPELVKPGDSVKISCKASGYSFTGYFMNWVMQSHGKSLEWIGRINPNNGETFYNQKFKGKATLTVDKSSDTAHMELRSLTSEDSAVYYCARGGTGTGWGQGTTLTVSS VL: DILMTQSPSSMSVSLGDTVSITCHASQGISSNIGWLQQKPGKSFKGLIYYGTNLEDGVPSRFSGSGSGADYSLTISSLESEDLADYYCIQYAQFPYTFGGGTKLEIK
Result: 7.87

Q: # pIC50 lookup, item 2-G20-A (antibody, V domains shown) VH: EVQLQQSGPELVKPGASVKMSCKASGYTFPSYVLHWVKQKPGQGLEWIGYIYPYNDGTNYNEKFKGKATLTSDKSSSTAYMELSSLTSEDSAVYYCARGDYGDSAWFPYWGQGTLVTVSA VL: DIVLTQSPASLAVSLGQRATISCRASKSVSTSGYSYMHWYQQKPGQPPKLLIYLASNLKSGVPARFSGGGSGTDFTLNIHPVEEEDAATYYCQLSRELPWTFGGGTKLEIK
Result: 7.72
